B1: Azoarcus group I ribozyme (parent)
chain: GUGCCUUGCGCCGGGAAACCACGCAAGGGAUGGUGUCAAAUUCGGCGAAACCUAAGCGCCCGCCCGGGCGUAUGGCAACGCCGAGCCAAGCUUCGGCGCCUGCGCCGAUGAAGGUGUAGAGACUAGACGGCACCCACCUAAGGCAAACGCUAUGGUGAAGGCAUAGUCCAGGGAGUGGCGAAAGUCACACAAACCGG

# Variants of: B1
# test-name: reverse-splicing fitness (ratio to wild type); higher = more active; in vitro selection; Mg2+ level not given
reverse-splicing fitness reference

{"mutation-code": "A111G A120G A145G U176G", "reverse-splicing fitness": 0.00937}
{"mutation-code": "C82A A111C A120U A145C C150G C169G U176A", "reverse-splicing fitness": 0.00291}
{"mutation-code": "C82A C150U C169G U176A", "reverse-splicing fitness": 0.014}
{"mutation-code": "A120C A145C C169U", "reverse-splicing fitness": 0.431}
{"mutation-code": "C82A A120U A145U C150A C169G U176A", "reverse-splicing fitness": 0.00237}
{"mutation-code": "C82G A111C A120U C150U U176A", "reverse-splicing fitness": 0.00878}
{"mutation-code": "C82G A111G A145U", "reverse-splicing fitness": 0.454}
{"mutation-code": "C82U A111U A145G C169G", "reverse-splicing fitness": 0.00856}
{"mutation-code": "A145C C169A U176C", "reverse-splicing fitness": 0.05}
{"mutation-code": "C82G A111G A120C A145U C150G C169A U176C", "reverse-splicing fitness": 0.0134}
{"mutation-code": "C82A A111C A120U C150A C169U U176A", "reverse-splicing fitness": 0.00806}
